Tested on: 931267-113-T-J1-PDC multicell spheroid viability
Test Method Notes: Anticancer human tumor 931267-113-T-J1-PDC patient-derived colon adenocarcinoma cell line growth inhibition [PI3K]
Conditions Used: second compound 10 µM; first compound 0.0316 µM; hits give low values
Endpoint: viability, T/C (%)
Could you give me the number in %? Just the number is fine.

# count of solved cases: 5
{"Molecule": "CC(C)n1nc(-c2ccc3oc(N)nc3c2)c2c(N)ncnc21 + Cc1nc(NC(=O)N2CCCC2C(N)=O)sc1-c1ccnc(C(C)(C)C(F)(F)F)c1", "viability, T/C / %": 44}
{"Molecule": "C[C@@H](NC(=O)c1ncnc(N)c1Cl)c1ncc(C(=O)Nc2cc(C(F)(F)F)c(Cl)cn2)s1 + CC(Nc1ncnc2nc[nH]c12)c1cc2cccc(Cl)c2c(=O)n1-c1ccccc1", "viability, T/C / %": 96.4}
{"Molecule": "CCCS(=O)(=O)Nc1ccc(F)c(C(=O)c2c[nH]c3ncc(-c4ccc(Cl)cc4)cc23)c1F + CC(Nc1ncnc2nc[nH]c12)c1cc2cccc(Cl)c2c(=O)n1-c1ccccc1", "viability, T/C / %": 92.3}
{"Molecule": "Cn1ncc(Cl)c1-c1cc(C(=O)NC(CN)Cc2cccc(F)c2)sc1Cl (stereo unspecified) + Cc1nc(NC(=O)N2CCCC2C(N)=O)sc1-c1ccnc(C(C)(C)C(F)(F)F)c1", "viability, T/C / %": 69.9}
{"Molecule": "C#Cc1c(F)ccc2cc(O)cc(-c3ncc4c(N5CC6CCC(C5)N6)nc(OCC56CCCN5CC(F)C6)nc4c3F)c12 (stereo unspecified) + CC(Nc1ncnc2nc[nH]c12)c1cc2cccc(Cl)c2c(=O)n1-c1ccccc1", "viability, T/C / %": 91.1}

Now examine the next entry.
-- ask Return viability, T/C (reported value) for this molecule: CC(C)n1nc(-c2ccc3oc(N)nc3c2)c2c(N)ncnc21 + CC(Nc1ncnc2nc[nH]c12)c1cc2cccc(Cl)c2c(=O)n1-c1ccccc1
-- reply 74.8

----------
Tested on: 931267-113-T-J1-PDC multicell spheroid viability
Test Method Notes: Anticancer human tumor 931267-113-T-J1-PDC cell line growth inhibition [PI3K];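 note: viability read 7 days after compound addition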
Conditions Used: second compound 1 µM; first compound 1 µM; hits give low values
Endpoint: viability, T/C (%)
Dear colleague, please return just the value in %, with no unit written.

Record excerpt, results attached:
{"Molecule": "CC1(C)CCC(CN2CCN(c3ccc(C(=O)NS(=O)(=O)c4ccc(NCC5CCOCC5)c([N+](=O)[O-])c4)c(Oc4cnc5[nH]ccc5c4)c3)CC2)=C(c2ccc(Cl)cc2)C1 + CC(Nc1ccc2c(c1)OCCn1cc(N3C(=O)OCC3C(F)F)nc1-2)C(N)=O", "Endpoint": "viability, T/C", "Measured Number": 69.7}
{"Molecule": "Cn1nccc1Nc1nccc(-c2ccn(C(CO)c3ccc(Cl)c(F)c3)c(=O)c2)n1 (stereo unspecified) + COc1c(OCCCN2CCOCC2)ccc2c3n(c(=NC(=O)c4cnc(N)nc4)nc12)CCN3", "Endpoint": "viability, T/C", "Measured Number": 18.4}
{"Molecule": "CC1(C)CCC(Nc2ncc(C(F)(F)F)c(-c3c[nH]c4c(P(C)(C)=O)c(C#N)ccc34)n2)CN1 (stereo unspecified) + Cc1nc(NC(=O)N2CCCC2C(N)=O)sc1-c1ccnc(C(C)(C)C(F)(F)F)c1", "Endpoint": "viability, T/C", "Measured Number": 69.6}
{"Molecule": "Cn1ncc(Cl)c1-c1cc(C(=O)NC(CN)Cc2cccc(F)c2)sc1Cl (stereo unspecified) + CC(Nc1ccc2c(c1)OCCn1cc(N3C(=O)OCC3C(F)F)nc1-2)C(N)=O", "Endpoint": "viability, T/C", "Measured Number": 63.8}

-- ask Retrieve viability, T/C measured for CC1(C)CCC(CN2CCN(c3ccc(C(=O)NS(=O)(=O)c4ccc(NCC5CCOCC5)c([N+](=O)[O-])c4)c(Oc4cnc5[nH]ccc5c4)c3)CC2)=C(c2ccc(Cl)cc2)C1 + Cc1nc(NC(=O)N2CCCC2C(N)=O)sc1-c1ccnc(C(C)(C)C(F)(F)F)c1 and print it.
-- reply 88.1

-- ask Respond only with viability, T/C recorded for CCCS(=O)(=O)Nc1ccc(F)c(C(=O)c2c[nH]c3ncc(-c4ccc(Cl)cc4)cc23)c1F + COc1c(OCCCN2CCOCC2)ccc2c3n(c(=NC(=O)c4cnc(N)nc4)nc12)CCN3
-- reply 41.4

-- ask Quickly give me recorded viability, T/C for CC1(C)CCC(Nc2ncc(C(F)(F)F)c(-c3c[nH]c4c(P(C)(C)=O)c(C#N)ccc34)n2)CN1 (stereo unspecified) + COc1c(OCCCN2CCOCC2)ccc2c3n(c(=NC(=O)c4cnc(N)nc4)nc12)CCN3
-- reply 28.3

-- ask Given C=CC(=O)N1CCN(c2nc(=O)n(-c3c(C)ccnc3C(C)C)c3nc(-c4c(O)cccc4F)c(F)cc23)C(C)C1 (stereo unspecified) + COc1c(OCCCN2CCOCC2)ccc2c3n(c(=NC(=O)c4cnc(N)nc4)nc12)CCN3 , respond with its viability, T/C.
-- reply 35.3

-- ask Identify viability, T/C associated with the molecule CC(C)NCC(C(=O)N1CCN(c2ncnc3c2C(C)CC3O)CC1)c1ccc(Cl)cc1 (stereo unspecified) + Cc1nc(NC(=O)N2CCCC2C(N)=O)sc1-c1ccnc(C(C)(C)C(F)(F)F)c1
-- reply 88.8

----------
System: 931267-113-T-J1-PDC multicell spheroid viability
Test Method Notes: Anticancer human tumor 931267-113-T-J1-PDC cell line growth inhibition [PI3K];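 note: viability read 7 days after compound addition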
Conditions Used: second compound 0.00316 µM; first compound 0.316 µM; hits give low values
Endpoint: viability, T/C (%)
Hi! Could you send only the number? It should be in %, unit omitted.

Solved cases (2 shown):
{"Compound": "CCCS(=O)(=O)Nc1ccc(F)c(C(=O)c2c[nH]c3ncc(-c4ccc(Cl)cc4)cc23)c1F + COc1c(OCCCN2CCOCC2)ccc2c3n(c(=NC(=O)c4cnc(N)nc4)nc12)CCN3", "Unit String": "%", "Measured Number": 104}
{"Compound": "C=CC(=O)N1CCN(c2nc(=O)n(-c3c(C)ccnc3C(C)C)c3nc(-c4c(O)cccc4F)c(F)cc23)C(C)C1 (stereo not drawn) + COc1c(OCCCN2CCOCC2)ccc2c3n(c(=NC(=O)c4cnc(N)nc4)nc12)CCN3", "Unit String": "%", "Measured Number": 101}

API: the following record is the query input.
-- ask Please give the documented viability, T/C of C[C@@H](NC(=O)c1ncnc(N)c1Cl)c1ncc(C(=O)Nc2cc(C(F)(F)F)c(Cl)cn2)s1 + CC(Nc1ccc2c(c1)OCCn1cc(N3C(=O)OCC3C(F)F)nc1-2)C(N)=O
-- reply 110

----------
Tested on: 931267-113-T-J1-PDC multicell spheroid viability
Test Method Notes: Anticancer human tumor 931267-113-T-J1-PDC cell line growth inhibition [PI3K];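 note: viability read 7 days after compound addition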
Conditions Used: second compound 0.01 µM; first compound 0.01 µM; hits give low values
Reported viability, T/C values follow for various compounds
Please respond with the number in % and leave the unit unwritten.

# annotated cases, reported viability, T/C shown
{"Compound": "CC(=O)c1c(C)c2cnc(Nc3ccc(N4CCNCC4)cn3)nc2n(C2CCCC2)c1=O + COc1c(OCCCN2CCOCC2)ccc2c3n(c(=NC(=O)c4cnc(N)nc4)nc12)CCN3", "Measured Number": 94}
{"Compound": "Cn1ncnc1[C@H]1c2n[nH]c(=O)c3cc(F)cc(c23)N[C@@H]1c1ccc(F)cc1 + CC(Nc1ccc2c(c1)OCCn1cc(N3C(=O)OCC3C(F)F)nc1-2)C(N)=O", "Measured Number": 114}

-- ask Determine its reported viability, T/C: CCN1CCN(Cc2ccc(Nc3ncc(F)c(-c4cc(F)c5nc(C)n(C(C)C)c5c4)n3)nc2)CC1 + COc1c(OCCCN2CCOCC2)ccc2c3n(c(=NC(=O)c4cnc(N)nc4)nc12)CCN3
-- reply 89.4

-- ask Report viability, T/C for CCN1CCN(Cc2ccc(Nc3ncc(F)c(-c4cc(F)c5nc(C)n(C(C)C)c5c4)n3)nc2)CC1 + CC(Nc1ccc2c(c1)OCCn1cc(N3C(=O)OCC3C(F)F)nc1-2)C(N)=O
-- reply 96.7

-- ask Given the compound CC(C)n1nc(-c2ccc3oc(N)nc3c2)c2c(N)ncnc21 + CC(Nc1ccc2c(c1)OCCn1cc(N3C(=O)OCC3C(F)F)nc1-2)C(N)=O , write its reported viability, T/C.
-- reply 81.1

-- ask Determine from records and report viability, T/C for CC(C)n1nc(-c2ccc3oc(N)nc3c2)c2c(N)ncnc21 + COc1c(OCCCN2CCOCC2)ccc2c3n(c(=NC(=O)c4cnc(N)nc4)nc12)CCN3
-- reply 82.3

-- ask Determine its reported viability, T/C: CC(=O)c1c(C)c2cnc(Nc3ccc(N4CCNCC4)cn3)nc2n(C2CCCC2)c1=O + CC(Nc1ccc2c(c1)OCCn1cc(N3C(=O)OCC3C(F)F)nc1-2)C(N)=O
-- reply 93.3

-- ask Return value of viability, T/C for input Cn1ncnc1[C@H]1c2n[nH]c(=O)c3cc(F)cc(c23)N[C@@H]1c1ccc(F)cc1 + COc1c(OCCCN2CCOCC2)ccc2c3n(c(=NC(=O)c4cnc(N)nc4)nc12)CCN3 , no commentary.
-- reply 89.2

Values from PubChem BioAssay AID1963970
